biological target: hCA II (Homo sapiens, UniProt P00918); construct: recombinant, made by the authors as in earlier publications; cytosolic isoform; test: stopped-flow CO2 hydration assay
Property label: pKi
# reply with the number alone; pKi is -log10 of concentration in mol/L

Indicate the recorded pKi value for this compound: NS(=O)(=O)c1ccc(NC(=O)NCCNCc2ccc(Br)cc2O)cc1 8.28

Note down pKi recorded for NS(=O)(=O)c1ccc(NC(=O)NCCNCc2ccccc2)cc1 6.46

Let me know recorded pKi for NS(=O)(=O)c1ccc(NC(=O)NCCNCc2ccccc2F)cc1 , thanks. 8.41

Give recorded pKi. NS(=O)(=O)c1ccc(NC(=O)NCCNCc2ccc(Cl)cc2)cc1 6.90

Give the value of pKi reported for the following: NS(=O)(=O)c1cccc(NC(=O)NCCNCc2ccc(-c3ccccc3)cc2)c1 6.34

Note down pKi recorded for COc1cc([N+](=O)[O-])ccc1CNCCNC(=O)Nc1ccc(S(N)(=O)=O)cc1 7.08

Annotate the compound CN(C)c1ccc(CNCCNC(=O)Nc2ccc(S(N)(=O)=O)cc2)cc1 with its measured pKi. 7.14

Specify measured pKi for CN(C)c1ccc(CNCCNC(=O)Nc2cccc(S(N)(=O)=O)c2)cc1 . 6.25

Report measured pKi; entry is NS(=O)(=O)c1ccc(NC(=O)NCCNCc2ccc(O)cc2)cc1 6.57

Look up and report measured pKi for this entry: NS(=O)(=O)c1cccc(NC(=O)NCCNCc2ccc([N+](=O)[O-])cc2)c1 6.77

Dear colleague, please send me the reported pKi for NS(=O)(=O)c1cccc(NC(=O)NCCNCc2ccc(Cl)cc2)c1 when you can. 7.43

Specify measured pKi for COc1cc([N+](=O)[O-])ccc1CNCCNC(=O)Nc1cccc(S(N)(=O)=O)c1 . 7.04

State its pKi: NS(=O)(=O)c1cccc(NC(=O)NCCNCc2ccc(Br)cc2O)c1 8.55

Consider the compound NS(=O)(=O)c1ccc(NC(=O)NCCNCc2ccc(-c3ccccc3)cc2)cc1 and give its recorded pKi. 7.20

Give pKi for the following compound: NS(=O)(=O)c1ccc(NC(=O)NCCNCc2ccc(F)cc2)cc1 8.04

Respond only with pKi recorded for NS(=O)(=O)c1ccc(NC(=O)NCCNCc2ccc([N+](=O)[O-])cc2)cc1 7.02

# return recorded pKi for input NS(=O)(=O)c1cccc(NC(=O)NCCNCc2ccc(F)cc2)c1 7.27

For the compound NS(=O)(=O)c1cccc(NC(=O)NCCNCc2ccccc2)c1 , report pKi. 7.12

Kindly indicate its recorded pKi. Item: NS(=O)(=O)c1cccc(NC(=O)NCCNCc2ccc(O)cc2)c1 6.78

State its pKi: NS(=O)(=O)c1cccc(NC(=O)NCCNCc2ccccc2F)c1 7.48

Each recorded value in this set is attributed to paper PMC7177897.
